Molecular target: SARS-CoV-2 B.1.1.7 spike protein (SARS-CoV-2 B.1.1.7 (Alpha), UniProt P0DTC2 13-1213)
Assay: ELISA
Endpoint: IC50 (nM)
// return numeric value only (unit: nM, not printed)

// solved cases for IC50 follow
Output IC50 of 9-L13-A (antibody, V domains shown) VH: QVQLKESGPGLVAPSQSLSITCTVSGFSLTSYAISWVRQPPGKGLEWLGLIWTGGGTNYNSALKSRLSISKDNSKSQIFLKMNSLQTDDTARYYCARGPPLIYYGDLYYFDYWGQGTTLTVSS VL: DIQMTQSPSSLSASLGGKVTITCKASQDINKYIAWYQHKPGKGPRLLIHYTSTLQPGIPSRFSGSGSGRDYSFSISNLEPEDIATYYCLQYDNLWTFGGGTKLEIK 65.3

Please look at this binder and report its IC50: 2-G20-A (antibody, V domains shown) VH: EVQLQQSGPELVKPGASVKMSCKASGYTFPSYVLHWVKQKPGQGLEWIGYIYPYNDGTNYNEKFKGKATLTSDKSSSTAYMELSSLTSEDSAVYYCARGDYGDSAWFPYWGQGTLVTVSA VL: DIVLTQSPASLAVSLGQRATISCRASKSVSTSGYSYMHWYQQKPGQPPKLLIYLASNLKSGVPARFSGGGSGTDFTLNIHPVEEEDAATYYCQLSRELPWTFGGGTKLEIK 19.2

Report IC50 for 6-O12-A (antibody, V domains shown) VH: QVQLQQPGTELVKPGASVKLSCKASGYTFTSYWMHWVKQRPGQGLEWIGNINPSNGGTNYNEKFRSKATLTVDKSSSTAYMQLSSLTSEDSAVYYCARLGWFLPLGSWGQGTTLTVSS VL: QIVLTQSPAIMSASLGEVITLTCSASSSVSYMHWYQQKSGTSPKLLIYSTSNLASGVPSRFSGSGSGTFYSLTISSVEAEDAADYYCHQWSGYMYTFGGGTKLEIK 7.05

Consider the record given below.
Give IC50 for the following binder: 4-M3-A (antibody, V domains shown) VH: EVQLQQSGPELVKPGDSVKISCKASGYSFTGYFMNWVMQSHGKSLEWIGRINPNNGETFYNQKFKGKATLTVDKSSDTAHMELRSLTSEDSAVYYCARGGTGTGWGQGTTLTVSS VL: DILMTQSPSSMSVSLGDTVSITCHASQGISSNIGWLQQKPGKSFKGLIYYGTNLEDGVPSRFSGSGSGADYSLTISSLESEDLADYYCIQYAQFPYTFGGGTKLEIK 4.98

Entry source: patent US20230115257A1
